These data points were gathered from a melting point compilation (Tetko et al.).

readout: melting point

In [3]: df
Out[3]:
                   compound       result
0  CN1CCN(Cc2cccc(CO)c2)CC1  51 to 52 °C
1      CN(C)c1ccc(N=C=S)cc1  69 to 71 °C

Look at this compound and give its reported melting point. Cc1nc(-c2ccc(Br)s2)cs1
78 to 79 °C

Similarly, Cc1nn(C)c(Cl)c1I ?
64 to 65 °C

----------
Entries and their measured melting point follow.

Consider the worked cases shown below.
>>> print(df.to_string())
                              compound           result
0    O=[N+]([O-])c1cccc(OCCN2CCOCC2)c1      50 to 53 °C
1  O=C(Oc1c(F)c(F)c(F)c(F)c1F)c1ccncc1  47.5 to 55.5 °C

Turning now to a further record.
Tell me the measured melting point of O=C1NC2CCCCC12 (stereo not drawn) , please.
48 to 50 °C
